study-target: HLA-B*3501 (human)
measure: binding affinity ratio (IC50 of standard peptide / IC50 of test peptide)

> print(dat)
                                     binder  observed.value
1  QPFILYAHI (modifications not checked) [HPV18 E1 263 peptide …]          0.0003
2    QPPKLRSSVA (modifications not checked)          0.0003
3  RPIVQFLRY (modifications not checked) [HPV18 E1 447 peptide …]            0.04
4  WPYLESRITV (modifications not checked) [HPV18 E1 583 peptide …]          0.0066
5     QPPKLRSSV (modifications not checked)          0.0003
